Origin of values: paper PMC6268642

tested on: rape Brassica napus; assay: Petri dish culture, growth inhibition of root and stalk of rape; assay type: in vivo; conditions: Brassica napus, 120 h, 1 mg/L, stalk growth, 5 days, read-out: Relative inhibition, stalk
# label = met if inhibition at 1 µg/mL >= 10% else not met

INSERT INTO measurements (compound_string, qualitative_label) VALUES
  ('Cn1c(COc2ccc(Cl)cc2)nc2cc(Cl)ccc2c1=O', 'not met'),
  ('O=c1oc(COc2ccccc2)nc2cccc(Cl)c12', 'met'),
  ('O=c1oc(COc2ccc(Cl)cc2Cl)nc2cccc(Cl)c12', 'met'),
  ('Cc1ccc2nc(COc3ccc(F)cc3)oc(=O)c2c1', 'met'),
  ('Nn1c(COc2ccc(Cl)cc2)nc2cc(Cl)ccc2c1=O', 'not met'),
  ('Cn1c(COc2ccc(Cl)cc2)nc2ccc(Cl)cc2c1=O', 'not met'),
  ('Cn1c(COc2ccc(Cl)cc2Cl)nc2ccccc2c1=O', 'met'),
  ('O=c1oc(COc2ccccc2)nc2ccc(Cl)cc12', 'met'),
  ('O=c1oc(COc2ccc(F)cc2)nc2ccc(Cl)cc12', 'met'),
  ('Nn1c(COc2ccc(Cl)cc2)nc2cccc(Cl)c2c1=O', 'met'),
  ('COc1cc2nc(COc3ccc(Cl)cc3)oc(=O)c2cc1OC', 'met'),
  ('O=c1oc(COc2ccc(Cl)cc2)nc2cc(Cl)ccc12', 'met'),
  ('O=c1oc(COc2ccccc2)nc2ccccc12', 'met'),
  ('Cn1c(COc2ccc(Cl)cc2Cl)nc2ccc(Cl)cc2c1=O', 'met'),
  ('Cn1c(COc2ccc(Cl)cc2)nc2cccc(Cl)c2c1=O', 'met'),
  ('COc1cc2nc(COc3ccc(Cl)cc3)n(N)c(=O)c2cc1OC', 'not met'),
  ('O=c1oc(COc2ccc(F)cc2)nc2ccccc12', 'met'),
  ('Cc1ccc2nc(COc3ccc(Cl)cc3)n(C)c(=O)c2c1', 'not met'),
  ('COc1cc2nc(COc3ccc(Cl)cc3Cl)n(C)c(=O)c2cc1OC', 'not met'),
  ('COc1cc2nc(COc3ccc(F)cc3)oc(=O)c2cc1OC', 'met'),
  ('Nn1c(COc2ccc(Cl)cc2)nc2ccc(Cl)cc2c1=O', 'met'),
  ('O=c1oc(COc2ccc(Cl)cc2Cl)nc2ccc(Cl)cc12', 'met'),
  ('COc1cc2nc(COc3ccc(Cl)cc3)n(C)c(=O)c2cc1OC', 'not met');

----------
inhibition at 10 µg/mL values, listed per item
test system: barnyard grass Echinochloa crusgalli; assay: Petri dish culture, growth inhibition of root and stalk of barnyard grass; assay type: in vivo; details: Echinochloa crus-galli, 120 h, 10 mg/L, root growth, 5 days, read-out: Relative inhibition, root
endpoint-label: inhibition at 10 µg/mL (%)

INSERT INTO measurements (compound, tested_on, endpoint_label, unit_text, value_measured) VALUES
  ('O=c1oc(COc2ccc(F)cc2)nc2ccc(Cl)cc12 [3t]', 'barnyard grass Echinochloa crusgalli', 'inhibition at 10 µg/mL', '%', 93.2),
  ('COc1cc2nc(COc3ccc(Cl)cc3)oc(=O)c2cc1OC [3l]', 'barnyard grass Echinochloa crusgalli', 'inhibition at 10 µg/mL', '%', 78.7),
  ('COc1cc2nc(COc3ccc(Cl)cc3)n(N)c(=O)c2cc1OC [4e]', 'barnyard grass Echinochloa crusgalli', 'inhibition at 10 µg/mL', '%', 23.3),
  ('COc1cc2nc(COc3ccc(Cl)cc3)n(C)c(=O)c2cc1OC [4o]', 'barnyard grass Echinochloa crusgalli', 'inhibition at 10 µg/mL', '%', 17.3),
  ('Nn1c(COc2ccc(Cl)cc2Cl)nc2cccc(Cl)c2c1=O [4g]', 'barnyard grass Echinochloa crusgalli', 'inhibition at 10 µg/mL', '%', 25.8),
  ('Cc1ccc2nc(COc3ccc(Cl)cc3)n(N)c(=O)c2c1 [4d]', 'barnyard grass Echinochloa crusgalli', 'inhibition at 10 µg/mL', '%', 35.6);
